EC50 listing for selected compounds.
Test system: Human immunodeficiency virus 1
Assay: Antiviral activity against wild type HIV-1 NL4-3 infected in MT-2 cells assessed as inhibition of viral replication in presence of 40% human serum and 27 mg/ml human serum albumin by luciferase reporter gene based multicycle replication assay
Type: functional, organism-based
Conditions: Human immunodeficiency virus 1, NL4-3, MT2
# unit: nM | format: bare number

// solved cases for EC50 follow
# Compound, Assay target, Experimental result
rows = [
    ("C=C(C)[C@@H]1CC[C@]2(NCCN3CCS(=O)(=O)CC3)CC[C@]3(C)[C@H](CC[C@@H]4[C@@]5(C)CC=C(c6ccc(C(=O)O)cc6)C(C)(C)[C@@H]5CC[C@]43C)[C@@H]12", "Human immunodeficiency virus 1", 11.5),
    ("C=C(C)[C@@H]1CC[C@]2(NCCN3CCC(S(C)(=O)=O)CC3)CC[C@]3(C)[C@H](CC[C@@H]4[C@@]5(C)CC=C(C6=CC[C@H](C(=O)O)CC6)C(C)(C)[C@@H]5CC[C@]43C)[C@@H]12", "Human immunodeficiency virus 1", 6.6),
    ("C=C(C)[C@@H]1CC[C@]2(NCCN3CCS(=O)(=O)CC3)CC[C@]3(C)[C@H](CC[C@@H]4[C@@]5(C)CC=C(C6=CC7(C6)CC(C(=O)O)C7)C(C)(C)[C@@H]5CC[C@]43C)[C@@H]12 (stereo not given in full)", "Human immunodeficiency virus 1", 7),
    ("C=C(C)[C@@H]1CC[C@]2(NCCN3CCS(=O)(=O)CC3)CC[C@]3(C)[C@H](CC[C@@H]4[C@@]5(C)CC=C(CCC(C)(C)CC(=O)O)C(C)(C)[C@@H]5CC[C@]43C)[C@@H]12", "Human immunodeficiency virus 1", 6.8),
]

-- ask Human immunodeficiency virus 1 / EC50 / C=C(C)[C@@H]1CC[C@]2(NCCN3CCS(=O)(=O)CC3)CC[C@]3(C)[C@H](CC[C@@H]4[C@@]5(C)CC=C(C6=CCC(C(=O)O)CC6)C(C)(C)[C@@H]5CC[C@]43C)[C@@H]12 (stereo not given in full) : value?
-- reply 8.9

* * *

Test system: Human immunodeficiency virus 1
Experiment: Antiviral activity against wild type HIV-1 NL4-3 infected in MT-2 cells assessed as inhibition of viral replication in presence of 10% of fetal bovine serum by luciferase reporter gene based multicycle replication assay
Format: functional, organism-based
Conditions: Human immunodeficiency virus 1, NL4-3, MT2
Measure name: EC50 (nM)
# unit: nM | format: bare number

// solved cases for EC50 follow
# Structure smiles string, Unit text, EC50
data = [
    ("C=C(C)[C@@H]1CC[C@]2(NCCN3CCS(=O)(=O)CC3)CC[C@]3(C)[C@H](CC[C@@H]4[C@@]5(C)CC=C(C6=CCC(C(=O)O)(C(=O)O)CC6)C(C)(C)[C@@H]5CC[C@]43C)[C@@H]12", "nM", 99),
    ("C=C(C)[C@@H]1CC[C@]2(CO)CC[C@]3(C)[C@H](CC[C@@H]4[C@@]5(C)CC=C(C#CC(=O)O)C(C)(C)[C@@H]5CC[C@]43C)[C@@H]12", "nM", 252),
    ("C=C(C)[C@@H]1CC[C@]2(NCCN3CCS(=O)(=O)CC3)CC[C@]3(C)[C@H](CC[C@@H]4[C@@]5(C)CC=C(CCCC(C(=O)O)C(=O)O)C(C)(C)[C@@H]5CC[C@]43C)[C@@H]12", "nM", 306),
]

Turning now to a further molecule:
-- ask What value of EC50 has been reported for the following molecule? `C=C(C)[C@@H]1CC[C@]2(C(=O)O)CC[C@]3(C)[C@H](CC[C@@H]4[C@@]5(C)CC=C(C6=CC7(C6)CC(C(=O)O)(C(=O)O)C7)C(C)(C)[C@@H]5CC[C@]43C)[C@@H]12`
-- reply 28.3

* * *

Experiment: Cytotoxicity against human MT2 cells
Type: cell-based
Measure name: CC50

// solved cases for CC50 follow
# Structure smiles string, CC50
records = [
    ("C=C(C)[C@@H]1CC[C@]2(CO)CC[C@]3(C)[C@H](CC[C@@H]4[C@@]5(C)CC=C(C#CC(=O)O)C(C)(C)[C@@H]5CC[C@]43C)[C@@H]12", "> 10 µM"),
    ("C=C(C)[C@@H]1CC[C@]2(NCCN3CCS(=O)(=O)CC3)CC[C@]3(C)[C@H](CC[C@@H]4[C@@]5(C)CC=C(CCCC(C(=O)O)C(=O)O)C(C)(C)[C@@H]5CC[C@]43C)[C@@H]12", "> 30 µM"),
    ("C=C(C)[C@@H]1CC[C@]2(NCCN3CCS(=O)(=O)CC3)CC[C@]3(C)[C@H](CC[C@@H]4[C@@]5(C)CC=C(C6=CC7(C6)CC(C(=O)O)(C(=O)O)C7)C(C)(C)[C@@H]5CC[C@]43C)[C@@H]12", "> 30 µM"),
]

-- ask What value of CC50 has been reported for the following compound? `C=C(C)[C@@H]1CC[C@]2(NCCN3CCS(=O)(=O)CC3)CC[C@]3(C)[C@H](CC[C@@H]4[C@@]5(C)C=CC(=C6CC7(C6)CC(C(=O)O)(C(=O)O)C7)C(C)(C)[C@@H]5CC[C@]43C)[C@@H]12`
-- reply > 10 µM
